Each entry below carries its reported self-aminoacylation.
# System: biotinyl-Val-oxazolone
# ASSAY PROTOCOL: self-aminoacylation, catalytic enhancement (BVO) (fold over background); higher = more active; k-Seq, kA / k0A0; sequences stand for … in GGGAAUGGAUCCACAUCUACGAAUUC…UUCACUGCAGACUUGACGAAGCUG
Fewer inactive variants are shown than the library holds.
Format: numeric value only, no unit, no commentary.

Consider the following illustrative entries.
CCACACUUUAAGAAAUCGGUC [Fam1B.1 aminoacylation ribozyme variant] | 0.663
AUUCUCCUAGAUCAUCGGGUG [Fam2.2 aminoacylation ribozyme variant] | 2.68
AUUCGCCUAAGUCAUCGGGUG [Fam2.2 aminoacylation ribozyme variant] | 7.95
CUAGUUCAAACAACCGGUCUG [Fam1A.1 aminoacylation ribozyme variant] | 1.2
CCACACUUCAGGCAGUCGGUC [Fam1B.1 aminoacylation ribozyme variant] | 1.48
AUUACCCUGGUCAUUGAGUGA [Fam2.1 aminoacylation ribozyme variant] | 4.49
ACACACUUCAAGCAAUGGGUC [Fam1B.1 aminoacylation ribozyme variant] | 0.947

Problem: Item under review: AUUCACCUAGCUCACCGGGUG [Fam2.2 aminoacylation ribozyme variant] . Reported self-aminoacylation?
Solution: 2.52

Data origin, for the record: the supplement of paper PMC9233669
